Each entry below carries its reported Emax.
Molecular target: recombinant human Meningioma Expressed Antigen 5 (MGEA5), also referred to as O-GlcNAcase (OGA) (Homo sapiens, UniProt O60502)
Construct: Full length OGA enzyme was purchased at OriGene (cat # TP322411); purchased OriGene TP322411
Sequence (O60502 whole entry): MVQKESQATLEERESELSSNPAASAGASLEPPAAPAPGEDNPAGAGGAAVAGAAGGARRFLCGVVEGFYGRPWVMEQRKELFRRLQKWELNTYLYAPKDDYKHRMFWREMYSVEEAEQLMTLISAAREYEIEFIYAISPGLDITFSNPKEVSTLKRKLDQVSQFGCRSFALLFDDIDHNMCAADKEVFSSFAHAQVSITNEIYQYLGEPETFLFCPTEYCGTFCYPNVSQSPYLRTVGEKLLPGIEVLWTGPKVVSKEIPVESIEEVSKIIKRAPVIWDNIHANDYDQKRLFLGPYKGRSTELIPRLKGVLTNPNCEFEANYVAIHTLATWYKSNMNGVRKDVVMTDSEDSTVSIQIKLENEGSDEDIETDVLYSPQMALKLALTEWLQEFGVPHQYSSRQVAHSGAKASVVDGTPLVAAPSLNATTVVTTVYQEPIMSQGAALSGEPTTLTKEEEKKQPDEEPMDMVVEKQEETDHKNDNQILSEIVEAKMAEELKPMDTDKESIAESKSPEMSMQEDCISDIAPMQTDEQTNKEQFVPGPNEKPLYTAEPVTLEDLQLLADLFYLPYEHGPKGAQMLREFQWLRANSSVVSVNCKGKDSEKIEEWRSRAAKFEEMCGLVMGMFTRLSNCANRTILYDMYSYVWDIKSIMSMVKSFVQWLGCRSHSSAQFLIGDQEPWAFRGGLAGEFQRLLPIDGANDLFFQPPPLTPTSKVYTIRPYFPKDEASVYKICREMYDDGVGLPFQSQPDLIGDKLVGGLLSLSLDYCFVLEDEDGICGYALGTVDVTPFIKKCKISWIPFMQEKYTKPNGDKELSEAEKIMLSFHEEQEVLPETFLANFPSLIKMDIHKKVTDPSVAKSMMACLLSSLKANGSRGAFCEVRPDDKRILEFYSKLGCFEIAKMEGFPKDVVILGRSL
Experiment: OGA biochemical assay: inhibition of FM-GlcNAc hydrolysis, fluorescence (protocol A 10 nM OGA, 1 h; protocol B 2 nM OGA, 6 h)
Conditions: Enzymatic protocol B (2 nM OGA, 6 h); read-out: Enzymatic Emax (%)
From the text: The assay is based on the inhibition of the hydrolysis of fluorescein mono-B-D-N-Acetyl-Glucosamine (FM-GlcNAc) (Mariappa et al. 2015, Biochem J 470:255) by the recombinant human Meningioma Expressed Antigen 5 (MGEA5), also referred to as 0-GlcNAcase (OGA). […] The fluorescence of the latter can be measured at excitation wavelength 485 nm and emission wavelength 538 nm. An increase in enzyme activity results in an increase in fluorescence signal. […]
TEST READOUT: Emax (%)

[[record]]
molecule = "Cn1c(C2CCCN(Cc3cc4c(cn3)OCCO4)C2)cc2ncccc21 (stereo not shown) [Compound 50]"
unit_string = "%"
recorded_result = 52.3

[[record]]
molecule = "CC(=O)Nc1ncc(CN2CCNC(c3cc4ncccc4[nH]3)C2)s1 (stereo not shown) [Compound 57]"
unit_string = "%"
recorded_result = 60.8

[[record]]
molecule = "O=C(CN1CCCC(c2cc3ncccc3[nH]2)C1)N1CCCC1 (stereo not shown) [Compound 49]"
unit_string = "%"
recorded_result = 80.5

[[record]]
molecule = "CC(=O)Nc1ncc(CN2CCC(Cc3cc4ncccc4n3C)C2)s1 (stereo not shown) [Compound 25]"
unit_string = "%"
recorded_result = 102

[[record]]
molecule = "CC(=O)Nc1ncc(CN2CCCC(c3cc4cnccc4[nH]3)C2)s1 (stereo not shown) [Compound 12]"
unit_string = "%"
recorded_result = 124

[[record]]
molecule = "Cn1c(C2CCCN(Cc3ccc4nccnc4c3)C2)cc2ncccc21 (stereo not shown) [Compound 41]"
unit_string = "%"
recorded_result = 89.8

[[record]]
molecule = "CC(=O)Nc1ncc(CN2CCC(Cc3cc4cccnc4n3C)C2)s1 (stereo not shown) [Compound 60]"
unit_string = "%"
recorded_result = 99.2

[[record]]
molecule = "Cn1c(C2CCCN(Cc3ccc4nsnc4c3)C2)cc2ncccc21 (stereo not shown) [Compound 52]"
unit_string = "%"
recorded_result = 72.2

[[record]]
molecule = "CC(=O)Nc1ncc(CN2CCCC(Cn3ccc4ncccc43)C2)s1 (stereo not shown) [Compound 64]"
unit_string = "%"
recorded_result = 100

[[record]]
molecule = "Cn1c(C2CCCN(Cc3ccc4ccccc4n3)C2)cc2ncccc21 (stereo not shown) [Compound 51]"
unit_string = "%"
recorded_result = 56.7

[[record]]
molecule = "Cn1c(C2CCCN(Cc3nc4ccccc4n3C)C2)cc2ncccc21 (stereo not shown) [Compound 56]"
unit_string = "%"
recorded_result = 98

[[record]]
molecule = "CC(=O)Nc1ncc(CN2CCCC(c3cc4cccnc4[nH]3)C2)s1 (stereo not shown) [Compound 8]"
unit_string = "%"
recorded_result = 100

[[record]]
molecule = "CC(=O)Nc1ncc(CN2CC[C@H](Cc3cc4ncccc4n3C)C2)s1 [Compound 59]"
unit_string = "%"
recorded_result = 99.7

[[record]]
molecule = "Cn1c(C2CCCN(Cc3cnc4c(c3)OCCO4)C2)cc2ncccc21 (stereo not shown) [Compound 55]"
unit_string = "%"
recorded_result = 81.5

[[record]]
molecule = "Cn1c(CN2CCCC(c3cc4ncccc4n3C)C2)cc2ccccc21 (stereo not shown) [Compound 54]"
unit_string = "%"
recorded_result = 69.1

[[record]]
molecule = "CC(=O)Nc1ncc(CN2CCCC(Cc3cc4ncccc4n3C)C2)s1 (stereo not shown) [Compound 26]"
unit_string = "%"
recorded_result = 101

[[record]]
molecule = "CC(=O)Nc1ncc(CN2CCCC(c3cc4cnccc4[nH]3)C2)s1 (single isomer, unassigned) [Compound 13]"
unit_string = "%"
recorded_result = 98.9

[[record]]
molecule = "CC(c1ccc2c(c1)OCCO2)N1CCCC(c2cc3ncccc3n2C)C1 (stereo not shown) [Compound 40]"
unit_string = "%"
recorded_result = 102

[[record]]
molecule = "CC(=O)Nc1ncc(CN2CCOC(c3cc4ncccc4[nH]3)C2)s1 (stereo not shown) [Compound 27]"
unit_string = "%"
recorded_result = 77.3

